Molecular target: human GCG receptor (human, UniProt P47871 26-477)
Sequence (P47871 26-477): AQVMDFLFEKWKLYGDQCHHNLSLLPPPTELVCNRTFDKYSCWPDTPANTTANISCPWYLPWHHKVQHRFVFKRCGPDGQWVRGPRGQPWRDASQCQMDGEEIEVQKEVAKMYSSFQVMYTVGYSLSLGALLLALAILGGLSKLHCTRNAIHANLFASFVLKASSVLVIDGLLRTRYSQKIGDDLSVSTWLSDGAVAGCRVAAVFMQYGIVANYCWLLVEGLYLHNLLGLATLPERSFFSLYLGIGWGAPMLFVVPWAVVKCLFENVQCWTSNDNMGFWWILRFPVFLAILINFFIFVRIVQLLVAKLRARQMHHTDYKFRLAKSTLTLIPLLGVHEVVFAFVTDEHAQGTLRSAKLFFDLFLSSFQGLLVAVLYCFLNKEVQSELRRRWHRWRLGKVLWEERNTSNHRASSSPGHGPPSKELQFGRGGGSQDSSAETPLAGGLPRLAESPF
Assay: cell-based or functional assay
Bridge positions count the residues as written; N and C are the ends. Square brackets hold non-standard residues; d marks the D form. Ends that are not written are not given here. * marks the point of attachment. Acetyl(2-(4-imidazolyl)) = O=C(Cc1c[nH]cn1)*; Aib = CC(C)(N)C(=O)O
The class of a record is decided solely by its measured In vitro activity compared to native peptide (%) vs Glucagon; consult zone 1 (below 8%), zone 2 (8% to below 20%), zone 3 (20% or more)

>>> print(df.to_string())
                                     binder   class
0  {Acetyl(2-(4-imidazolyl))}-[Aib]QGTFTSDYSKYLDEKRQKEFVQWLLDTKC (bridge 15-19) [Triple agonist of SEQ ID NO: 89]  zone 1
1  {Acetyl(2-(4-imidazolyl))}-[Aib]QGTFTSDYSIAMDEIACKDFVNWLLNTK (bridge 15-19) [Triple agonist of SEQ ID NO: 61]  zone 1
2  {Acetyl(2-(4-imidazolyl))}-[Aib]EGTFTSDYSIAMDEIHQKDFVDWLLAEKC (bridge 15-19) [Triple agonist of SEQ ID NO: 91]  zone 2
3  Y[Aib]QGTFTSDYSKYLDECRAKEFVQWLKNGGPSSGAPPPS (bridge 16-20) [Triple agonist of SEQ ID NO: 24]  zone 2
4  Y[Aib]QGTFTSDYSKYLDECRAKDFVQWLLDHHPSSGQPPPS (bridge 16-20) [Triple agonist of SEQ ID NO: 66]  zone 3
5  H[Aib]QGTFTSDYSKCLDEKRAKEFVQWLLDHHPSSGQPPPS (bridge 16-20) [Triple agonist of SEQ ID NO: 65]  zone 3
6  Y[Aib]QGTFTSDYSKYLDERACKDFVQWLLDHHPSSGQPPPS (bridge 16-20) [Triple agonist of SEQ ID NO: 71]  zone 2
7  H[Aib]QGTFTSDYSKYLDECRQKEFVQWLLNGGPSSGAPPPSG (bridge 16-20) [Triple agonist of SEQ ID NO: 37]  zone 1
8  H[Aib]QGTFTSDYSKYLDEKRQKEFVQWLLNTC (bridge 16-20) [Triple agonist of SEQ ID NO: 51]  zone 1
9  Y[Aib]QGTFTSDYSKYLDEKRAKEFVQWLLDCHPSSGQPPPS (bridge 16-20) [Triple agonist of SEQ ID NO: 97]  zone 3
